Sourced from patent US11564920B2

- test-system: hERG current (Homo sapiens (Human), UniProt Q12809)
- Sequence (Q12809 whole entry): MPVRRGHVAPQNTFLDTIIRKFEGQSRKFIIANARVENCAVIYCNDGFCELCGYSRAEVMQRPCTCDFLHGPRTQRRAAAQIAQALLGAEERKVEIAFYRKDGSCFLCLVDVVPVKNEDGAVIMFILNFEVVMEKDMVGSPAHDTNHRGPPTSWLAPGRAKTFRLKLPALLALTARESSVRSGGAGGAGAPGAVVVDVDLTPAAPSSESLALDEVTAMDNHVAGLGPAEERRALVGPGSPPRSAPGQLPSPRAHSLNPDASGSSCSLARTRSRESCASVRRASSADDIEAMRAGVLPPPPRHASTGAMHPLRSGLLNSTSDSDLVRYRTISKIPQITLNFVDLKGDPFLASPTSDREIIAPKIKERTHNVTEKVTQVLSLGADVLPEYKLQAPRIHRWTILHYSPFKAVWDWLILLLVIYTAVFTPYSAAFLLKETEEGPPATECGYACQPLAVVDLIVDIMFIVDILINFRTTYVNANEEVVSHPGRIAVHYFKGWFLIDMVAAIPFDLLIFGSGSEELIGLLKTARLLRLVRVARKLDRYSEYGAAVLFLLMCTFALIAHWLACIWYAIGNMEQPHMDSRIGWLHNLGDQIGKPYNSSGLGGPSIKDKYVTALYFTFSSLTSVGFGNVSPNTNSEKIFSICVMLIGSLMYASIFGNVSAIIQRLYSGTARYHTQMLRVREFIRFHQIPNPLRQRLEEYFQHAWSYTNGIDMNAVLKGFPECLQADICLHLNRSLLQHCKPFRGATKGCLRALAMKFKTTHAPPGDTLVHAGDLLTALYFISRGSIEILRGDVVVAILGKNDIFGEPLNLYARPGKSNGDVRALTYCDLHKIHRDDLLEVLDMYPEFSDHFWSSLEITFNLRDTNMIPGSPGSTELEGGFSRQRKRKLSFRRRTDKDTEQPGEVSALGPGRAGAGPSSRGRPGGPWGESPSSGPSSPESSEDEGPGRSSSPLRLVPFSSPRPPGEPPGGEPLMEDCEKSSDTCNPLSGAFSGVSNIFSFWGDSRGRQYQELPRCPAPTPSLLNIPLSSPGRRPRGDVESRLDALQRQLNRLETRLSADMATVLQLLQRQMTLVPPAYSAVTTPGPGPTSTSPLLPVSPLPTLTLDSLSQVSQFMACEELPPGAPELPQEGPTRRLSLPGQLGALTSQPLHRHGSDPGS
- assay-procedure: hERG current blocking test
- applied-conditions: IC50 of hERG divided by IC50 of CHK1 inhibition of Test Example 1
Reported values of hERG/CHK1 for individual entries

Some entries whose results are on file:
1. COc1cncc(OC[C@H]2CNCCO2)c1-c1cc(Nc2cnc(C#N)cn2)n[nH]1 (stereo in doubt) :: <3649
2. COc1ccnc(OCCCN)c1-c1cc(Nc2cnc(C(F)(F)F)cn2)n[nH]1 :: <888

Enter measured hERG/CHK1, system hERG current (Homo sapiens (Human), UniProt Q12809), for the compound shown: `COc1ccnc(OCC2(CN)CC2)c1-c1cc(Nc2cnc(C#N)cn2)n[nH]1`
<8438
